Test system: KM12 colon
testSummary: NCI tumour cell line growth inhibition, 48 h; in the data active means GI50 below about 0.43 µM; inactive means the rest
One label from this list, please: active, inactive

smilesNotation: C#COc1cccc(Nc2ncnc3cc(NC(=O)[C@@H](C)Cl)ccc23)c1
classification: inactive
--
smilesNotation: NC(=O)c1nc(-c2c(F)cccc2Cl)oc1Nc1ccc(C(=O)N2CCOCC2)cc1
classification: active
--
smilesNotation: C[C@]12CCc3nc(Nc4ccc(O)cc4)sc3C1=CC[C@@H]1[C@@H]2CC[C@]2(C)/C(=N/NC(N)=S)CC[C@@H]12
classification: inactive
--
smilesNotation: CN(C)CCNC(=O)Nc1ccc(N(C)c2ccnc(Nc3ccc(CS(C)(=O)=O)cc3)n2)cc1
classification: inactive

What did this assay record as the result for C/C(=N\NC(=S)N1CCC1)c1ccccn1 ? active

Recorded values, source PubChem BioAssay (NCI).
